Kindly supply the reported Response values for the records listed here.
- experimentalSystem: T1, monkey Trop2 protein (Sino Biological, #90893-C08H) (monkey, UniProt A0A2K5UE71 27-274)
- T1 construct: bought protein; also called monkey Trop2 protein antigen (His tag)
- T1 sequence: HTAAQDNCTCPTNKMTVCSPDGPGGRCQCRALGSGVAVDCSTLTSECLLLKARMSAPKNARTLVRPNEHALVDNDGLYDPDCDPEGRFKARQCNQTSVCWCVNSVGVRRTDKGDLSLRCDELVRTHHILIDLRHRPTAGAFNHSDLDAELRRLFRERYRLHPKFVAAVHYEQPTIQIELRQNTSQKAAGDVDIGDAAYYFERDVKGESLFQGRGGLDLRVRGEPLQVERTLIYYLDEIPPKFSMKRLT
- assayExplanation: BLI, Octet RED96, AHC sensor

Provide each entry's Response from the list below.
1. PR001142 (antibody, human IgG1, kappa, V domains shown, fully human IgG1/kappa; also called antibody No. (9)) VH: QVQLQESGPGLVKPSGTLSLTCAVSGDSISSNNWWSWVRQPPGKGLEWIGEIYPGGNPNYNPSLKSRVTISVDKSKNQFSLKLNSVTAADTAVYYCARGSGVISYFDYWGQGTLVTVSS VL: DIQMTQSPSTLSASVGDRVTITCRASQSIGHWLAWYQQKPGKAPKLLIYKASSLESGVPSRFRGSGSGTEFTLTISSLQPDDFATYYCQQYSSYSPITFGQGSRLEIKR
2. PR001162 (antibody, human IgG1, kappa, V domains shown, fully human IgG1/kappa; also called antibody No. (23)) VH: QVQLVESGGGVVQPGTSLRLSCVASGFTFSNDGMHWVRQAPGMGLEWVAIMWFDGGSKYYADSVKGRFTISRDNSKNTLYLQMNNLRAEDTAVYYCARDHPHYLGSGSFDYWGQGTLVTVSS VL: EIVLTQSPATLSLSPGERATLSCRASQSVSSYLAWYQQKPGQAPRLLIYDASNRATGIPARFSGSGSGTDFTLTISSLQAEDVAVYYCQQYYSTPYTFGQGTKLEIKR
3. PR001170 (antibody, human IgG1, kappa, V domains shown, fully human IgG1/kappa; also called antibody No. (29)) VH: QVQLQESGPGLVKPSETLSLTCAVSGYSINSGYFWAWIRQPPGMGLEWIGSIYHSGRTHYNPSLKSRVIISLDTSKNQFSLKLRSVTAADSAVYYCAREGYASGSYYWGQGTLVTVSS VL: EIVMTQSPATLSVSPGERATLSCRSSQSVNSYLAWFQQKPGQAPRLLIYDSSTRATGIPARFSGSGSGTEFTLTISSLQSEDFAFYFCQQYENWPLTFGGGTKVEIKR
4. PR001133 (antibody, human IgG1, kappa, V domains shown, fully human IgG1/kappa; also called antibody No. (5)) VH: QVNLVESGGGVVQPGRSLKLSCAASGFTFSSYGMHWVRQAPGKGLEWVALIWSDGTNRYYTESVKGRFTISRDNSKNTLSLQMKSLRAEDTAVYYCAKDGWGTYGEYFQHWGQGTLVTVSS VL: DIQMTQSPSSLSASVGDRVTITCRASQNINSYLHWYQQKPGKAPKLLIYAASSLQSGVPSRFSGSGSGTDFTLTISSLQPEDFAIYYCQQSYSIPPITFGQGTRLEIKR
5. PR001158 (antibody, human IgG1, kappa, V domains shown, fully human IgG1/kappa; also called antibody No. (20)) VH: QVQLVESGGGVVQPGRSLRLSCVASGFTFSHYGMHWVRQAPGKGLEWVAVIWYDGIKKYYVESVKGRFTISRDNSKNTLNLQMNRLRAEDTAVYYCARDGGFGESNYYGLDVWGQGTTVTVSS VL: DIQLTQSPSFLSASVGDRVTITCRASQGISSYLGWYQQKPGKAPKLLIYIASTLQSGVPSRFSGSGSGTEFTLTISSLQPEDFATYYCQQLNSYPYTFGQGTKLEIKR

1: 0.382; 2: 0.37; 3: 0.387; 4: 0.369; 5: 0.406

Provide each entry's Response from the list below.
1. PR001160 (antibody, human IgG1, kappa, V domains shown, fully human IgG1/kappa; also called antibody No. (22)) VH: QVQLVESGGGVVQPGRSLRLSCEASGFTFSHYGMHWVRQAPGKGLEWVAVIWYDGIMKNYIESVKGRFTISRDNSKNTLYLQMNRLRAEDTAVYYCARDGGFGELNYYGLDVWGQGTTVTVSS VL: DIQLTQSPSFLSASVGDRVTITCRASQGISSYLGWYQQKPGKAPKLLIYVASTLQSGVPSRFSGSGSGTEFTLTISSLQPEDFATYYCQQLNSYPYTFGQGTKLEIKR
2. PR001152 (antibody, human IgG1, kappa, V domains shown, fully human IgG1/kappa; also called antibody No. (15)) VH: QVQLVESGGAVVQPGRSLRLSCAASGFTFSHYGMHWVRQAPGKGLEWVAVIWYDGIKSYYVESVKGRFTISRDNSKNTLYLQMDRLRAEDTAVYYCARDGGFGESNYYGLDVWGQGTTVTVSS VL: DIQLTQSPSFLSASVGDRVTITCRASQGINSYLGWYQRKPGKAPKLLIYIASTLQSGVPSRFSGSGSGTEFTLTISSLQPEDFATYYCQQLNSYPYTFGQGTKLEIKR
3. PR001155 (antibody, human IgG1, kappa, V domains shown, fully human IgG1/kappa; also called antibody No. (18)) VH: QVQLVQSGGGVVQPGRSLRLSCAASGFTFSHYGMHWVRQAPGKGLEWVAVIWYDGIKKYYVESVKGRFTISRDNSKNTLYLQMNRLRAEDTAVYYCARDGGFGELNYYGLDVWGQGTTVTVSS VL: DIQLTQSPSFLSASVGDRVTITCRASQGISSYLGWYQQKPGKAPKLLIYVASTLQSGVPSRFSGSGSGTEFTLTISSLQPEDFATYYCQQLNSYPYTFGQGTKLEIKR
4. PR001134 (antibody, human IgG1, kappa, V domains shown, fully human IgG1/kappa; also called antibody No. (6)) VH: QVQLVESGGGVVQPGRSLRVSCIASGFFFSSYGMHWVRQAPGKGLEWVAVIWYDGSNEDYVDSVKGRFTISRDNSKNTLYLQMNSLRGEDTAMYYCARGGYNSGWWAFDIWGQGTMVTVSS VL: DIQMTQSPSSLSASVGDRVTITCRASQGISHFLAWYQQKPGKVPKLLIYAASTLQSGVPSRFSGSGSGTDFTLTISSLQPEDVATYYCQKFNSAPLTFGGGTKVEIKR
5. PR001171 (antibody, human IgG1, kappa, V domains shown, fully human IgG1/kappa; also called antibody No. (30)) VH: QVQLVESGGGVVQPGRSLRLSCAASGFTFSHYGMHWVRQAPGKGLEWVAVIWYDGIKKNYVESVKGRFTISRDNSKNTLNLQMNRLRAEDTAVYYCARDGGFGESNYYGLDVWGQGTTVTVSS VL: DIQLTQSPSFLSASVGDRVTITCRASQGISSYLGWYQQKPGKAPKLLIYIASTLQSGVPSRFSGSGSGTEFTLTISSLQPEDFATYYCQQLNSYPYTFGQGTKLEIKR

[0.36, 0.343, 0.356, 0.335, 0.319]
